Target: Gonadotropin-releasing hormone receptor (Rattus norvegicus)
Sequence (whole entry): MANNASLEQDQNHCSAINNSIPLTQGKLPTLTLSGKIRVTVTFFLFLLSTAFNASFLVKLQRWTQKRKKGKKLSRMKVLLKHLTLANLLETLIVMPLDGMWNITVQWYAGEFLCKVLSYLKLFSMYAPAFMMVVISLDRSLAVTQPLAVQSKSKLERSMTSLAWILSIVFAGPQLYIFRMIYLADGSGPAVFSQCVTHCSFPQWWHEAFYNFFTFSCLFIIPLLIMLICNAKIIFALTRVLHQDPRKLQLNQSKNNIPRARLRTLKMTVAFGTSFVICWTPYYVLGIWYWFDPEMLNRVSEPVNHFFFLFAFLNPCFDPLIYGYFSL
Test: In vitro antagonist activity at GNRHR in CD rat anterior pituitary gland assessed as ratio of molar concentration of compound to LH-RH for inhibition of LH-RH-stimulated LH release after 4 hrs by radioimmunoassay
outcomeMeasure: ED50 (molar ratio)

Example compounds with recorded ED50:
CCNC(=O)[C@@H]1CCCN1C(=O)[C@H](CCCNC(=N)N)NC(=O)[C@H](CC(C)C)NC(=O)[C@@H](CCCNC(=N)N)NC(=O)[C@H](Cc1ccc(O)cc1)NC(=O)[C@H](CO)NC(=O)[C@H](Cc1c[nH]c2ccccc12)NC(=O)[C@H](CCC(N)=O)NC(=O)OCc1ccccc1.Cl	20
COc1ccc(COC(=O)N[C@@H](COCc2ccccc2)C(=O)N[C@@H](Cc2c[nH]c3ccccc23)C(=O)N[C@@H](CO)C(=O)N[C@@H](Cc2ccc(O)cc2)C(=O)N[C@H](Cc2ccccc2)C(=O)N[C@@H](CC(C)C)C(=O)N[C@@H](CCCNC(=N)N)C(=O)N2CCC[C@H]2C(=O)NCC(N)=O)cc1.Cl	1.3

(I) CCNC(=O)[C@@H]1CCCN1C(=O)[C@H](CCCNC(=N)N)NC(=O)[C@H](CC(C)C)NC(=O)[C@@H](CC(C)C)NC(=O)[C@H](Cc1ccc(O)cc1)NC(=O)[C@H](CO)NC(=O)[C@H](Cc1c[nH]c2ccccc12)NC(=O)[C@H](CCC(N)=O)NC(=O)OCc1ccccc1.Cl
(II) CC(C)C[C@H](NC(=O)OCc1ccccc1)C(=O)N[C@@H](Cc1c[nH]c2ccccc12)C(=O)N[C@@H](CO)C(=O)N[C@@H](Cc1ccc(O)cc1)C(=O)N[C@H](CC(N)=O)C(=O)N[C@@H](CC(C)C)C(=O)N[C@@H](CCCNC(=N)N)C(=O)N1CCC[C@H]1C(=O)NCC(N)=O.Cl
Input line: Which value of ED50 is smaller, the one for I or the one for II ? Record your answer as the label of the chosen record.
Output line: I
(I: 22.3 molar ratio, II: 134 molar ratio)

====

Biological target: UniProtKB P30969
Sequence (whole entry): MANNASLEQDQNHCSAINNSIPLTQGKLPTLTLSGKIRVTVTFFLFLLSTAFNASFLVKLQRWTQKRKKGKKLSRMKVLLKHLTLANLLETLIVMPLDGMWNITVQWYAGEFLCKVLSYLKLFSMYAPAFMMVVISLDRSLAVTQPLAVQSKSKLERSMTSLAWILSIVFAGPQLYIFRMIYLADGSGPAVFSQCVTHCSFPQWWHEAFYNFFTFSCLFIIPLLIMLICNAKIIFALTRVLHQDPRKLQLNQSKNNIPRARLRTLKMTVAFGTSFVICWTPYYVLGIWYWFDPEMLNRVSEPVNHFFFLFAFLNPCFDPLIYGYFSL
Assay: In vitro antagonist activity at GNRHR in CD rat anterior pituitary gland assessed as inhibition of LH-RH-stimulated LH release at compound to LH-RH molar ratio of 2800 after 4 hrs by radioimmunoassay
Conditions: concentration not given here
outcomeMeasure: inhibition (%)

CC(C)C[C@H](NC(=O)CNC(=O)[C@H](Cc1ccc(O)cc1)NC(=O)[C@H](CO)NC(=O)[C@H](Cc1c[nH]c2ccccc12)NC(=O)[C@@H](Cc1ccccc1)NC(=O)OCc1ccccc1)C(=O)N[C@@H](CCCNC(=N)N)C(=O)N1CCC[C@H]1C(=O)NCC(N)=O.Cl	76

(a) CCNC(=O)[C@@H]1CCCN1C(=O)[C@H](CCCNC(=N)N)NC(=O)[C@H](CC(C)C)NC(=O)[C@@H](CCCNC(=N)N)NC(=O)[C@H](Cc1ccc(O)cc1)NC(=O)[C@H](CO)NC(=O)[C@H](Cc1c[nH]c2ccccc12)NC(=O)[C@H](CCC(N)=O)NC(=O)OCc1ccccc1.Cl
(b) CCNC(=O)[C@@H]1CCCN1C(=O)[C@H](CCCNC(=N)N)NC(=O)[C@H](CC(C)C)NC(=O)CNC(=O)[C@H](Cc1ccc(O)cc1)NC(=O)[C@H](CO)NC(=O)[C@H](Cc1c[nH]c2ccccc12)NC(=O)[C@@H](CC(C)C)NC(=O)OCc1ccccc1
Input line: Parameter check: reported inhibition is higher for which label, a or b ? Record your answer as the label of the chosen record.
Output line: a
(a: 86%, b: 51%)

====

biological target: UniProtKB P30969; experiment: In vitro antagonist activity at GNRHR in CD rat anterior pituitary gland assessed as ratio of molar concentration of compound to LH-RH for inhibition of LH-RH-stimulated LH release after 4 hrs by radioimmunoassay
Peptide text beside a SMILES is read from it.
Collected ED50 values appear next to each entry.
A number alone suffices; assume molar ratio.

Lab entry: UniProtKB P30969 assay, compound CCNC(=O)[C@@H]1CCCN1C(=O)[C@H](CCCNC(=N)N)NC(=O)[C@H](CC(C)C)NC(=O)[C@@H](Cc1ccccc1)NC(=O)[C@H](Cc1ccc(O)cc1)NC(=O)[C@H](CO)NC(=O)[C@H](Cc1c[nH]c2ccccc12)NC(=O)[C@H](CC(C)C)NC(=O)OCc1ccccc1.Cl , ED50 = 3

Lab entry: UniProtKB P30969 assay, compound CC(C)C[C@H](NC(=O)CNC(=O)[C@H](Cc1ccc(O)cc1)NC(=O)[C@H](CO)NC(=O)[C@H](Cc1c[nH]c2ccccc12)NC(=O)[C@H](CCC(=O)NCc1ccccc1)NC(=O)OCc1ccccc1)C(=O)N[C@@H](CCCNC(=N)N)C(=O)N1CCC[C@H]1C(=O)NCC(N)=O.Cl (HELM PEPTIDE1{[O=C(OCc1ccccc1)[*:2]].E.W.S.Y.G.L.R.P.G.[am]}|CHEM1{[c1ccc(CN[*:1])cc1]}$PEPTIDE1,CHEM1,2:R3-1:R1$$$V2.0) , ED50 = 360

====

Collected inhibition values appear next to each entry.
target: Gonadotropin-releasing hormone receptor (Rattus norvegicus) (UniProt P30969); experiment: In vitro antagonist activity at GNRHR in CD rat anterior pituitary gland assessed as inhibition of LH-RH-stimulated LH release at compound to LH-RH molar ratio of 20 after 4 hrs by radioimmunoassay; details: concentration not given here
A number alone suffices; assume %.

CC(=O)O.CCNC(=O)[C@@H]1CCCN1C(=O)[C@H](CCCNC(=N)N)NC(=O)[C@H](CC(C)C)NC(=O)[C@@H](Cc1ccccc1)NC(=O)[C@H](Cc1ccc(O)cc1)NC(=O)[C@H](CO)NC(=O)[C@H](Cc1c[nH]c2ccccc12)NC(=O)[C@H](CCC(=O)NCc1ccccc1)NC(=O)OCc1ccccc1	71
CC(=O)O.CCNC(=O)[C@@H]1CCCN1C(=O)[C@H](CCCNC(=N)N)NC(=O)[C@H](CC(C)C)NC(=O)[C@@H](Cc1ccc(OC)cc1)NC(=O)[C@H](Cc1ccc(O)cc1)NC(=O)[C@H](CO)NC(=O)[C@H](Cc1c[nH]c2ccccc12)NC(=O)[C@H](COCc1ccccc1)NC(=O)OCc1ccccc1	100
CC(C)C[C@H](NC(=O)[C@@H](Cc1c[nH]c2ccccc12)NC(=O)[C@H](Cc1ccc(O)cc1)NC(=O)[C@H](CO)NC(=O)[C@H](Cc1c[nH]c2ccccc12)NC(=O)[C@H](COCc1ccccc1)NC(=O)OC(C)(C)C)C(=O)N[C@@H](CCCNC(=N)N)C(=O)N1CCC[C@H]1C(=O)NCC(N)=O	71

molecule CCNC(=O)[C@@H]1CCCN1C(=O)[C@H](CCCNC(=N)N)NC(=O)[C@H](CC(C)C)NC(=O)[C@@H](Cc1c[nH]c2ccccc12)NC(=O)[C@H](Cc1ccc(O)cc1)NC(=O)[C@H](CO)NC(=O)[C@H](Cc1c[nH]c2ccccc12)NC(=O)[C@@H](NC(=O)OCc1ccccc1)[C@@H](C)CC.Cl , inhibition observed: 100

====

biological target: Gonadotropin-releasing hormone receptor (Rattus norvegicus) (UniProt P30969); assay: In vitro antagonist activity at GNRHR in CD rat anterior pituitary gland assessed as inhibition of LH-RH-stimulated LH release at compound to LH-RH molar ratio of 100 after 4 hrs by radioimmunoassay; conditions: concentration not given here
Peptide text beside a SMILES is read from it. * marks the point of attachment. Cbz = O=C(OCc1ccccc1)*; NHBn = c1ccc(CN*)cc1
outcomeMeasure: inhibition (%)

Example compounds with recorded inhibition:
CC(C)C[C@H](NC(=O)CNC(=O)[C@H](Cc1ccc(O)cc1)NC(=O)[C@H](CO)NC(=O)[C@H](Cc1c[nH]c2ccccc12)NC(=O)[C@H](CCC(=O)NCc1ccccc1)NC(=O)OCc1ccccc1)C(=O)N[C@@H](CCCNC(=N)N)C(=O)N1CCC[C@H]1C(=O)NCC(N)=O.Cl (HELM PEPTIDE1{[O=C(OCc1ccccc1)[*:2]].E.W.S.Y.G.L.R.P.G.[am]}|CHEM1{[c1ccc(CN[*:1])cc1]}$PEPTIDE1,CHEM1,2:R3-1:R1$$$V2.0)	96
CCNC(=O)[C@@H]1CCCN1C(=O)[C@H](CCCNC(=N)N)NC(=O)[C@H](CC(C)C)NC(=O)[C@@H](Cc1c[nH]c2ccccc12)NC(=O)[C@H](Cc1ccc(O)cc1)NC(=O)[C@H](CO)NC(=O)[C@H](Cc1c[nH]c2ccccc12)NC(=O)[C@H](CCC(N)=O)NC(=O)OCc1ccccc1.Cl	100
CCNC(=O)[C@@H]1CCCN1C(=O)[C@H](CCCNC(=N)N)NC(=O)[C@H](CC(C)C)NC(=O)CNC(=O)[C@H](Cc1ccc(O)cc1)NC(=O)[C@H](CO)NC(=O)[C@H](Cc1c[nH]c2ccccc12)NC(=O)[C@H](CCC(=O)NCc1ccccc1)NC(=O)OCc1ccccc1.Cl (Cbz-E(NHBn)WSYGLRP-NHEt)	88

(I) CCNC(=O)[C@@H]1CCCN1C(=O)[C@H](CCCNC(=N)N)NC(=O)[C@H](CC(C)C)NC(=O)[C@@H](Cc1ccccc1)NC(=O)[C@H](Cc1ccc(O)cc1)NC(=O)[C@H](CO)NC(=O)[C@H](Cc1c[nH]c2ccccc12)NC(=O)[C@H](CCC(N)=O)NC(=O)OCc1ccccc1
(II) CC(C)C[C@H](NC(=O)OCc1ccccc1)C(=O)N[C@@H](Cc1c[nH]c2ccccc12)C(=O)N[C@@H](CO)C(=O)N[C@@H](Cc1ccc(O)cc1)C(=O)N[C@H](CC(N)=O)C(=O)N[C@@H](CC(C)C)C(=O)N[C@@H](CCCNC(=N)N)C(=O)N1CCC[C@H]1C(=O)NCC(N)=O.Cl
Input line: Which value of inhibition is smaller, the one for I or the one for II ? Record your answer as the label of the chosen record.
Output line: II
(II: 42%, I: 70%)

Source of measurements: ChEMBL document CHEMBL3272173
